Tested on: HepG2
Protocol: Cell viability assay (CellTiter) on HepG2 cells
Assay type: cell-based, human
Assay conditions: Homo sapiens; HepG2, 72 hours, mean ± DS
Assay readout: IC50 (µM)

Compound	Assay readout	U	Recorded measurement
CNC(=O)c1cc(Oc2ccc(NC(=O)Nc3ccc(Cl)c(C(F)(F)F)c3)cc2)ccn1 [Sorafenib]	IC50	µM	5.5
